# ASSAYED TARGET: Delta-type opioid receptor (Homo sapiens, UniProt P41143)
# Sequence (P41143 whole entry): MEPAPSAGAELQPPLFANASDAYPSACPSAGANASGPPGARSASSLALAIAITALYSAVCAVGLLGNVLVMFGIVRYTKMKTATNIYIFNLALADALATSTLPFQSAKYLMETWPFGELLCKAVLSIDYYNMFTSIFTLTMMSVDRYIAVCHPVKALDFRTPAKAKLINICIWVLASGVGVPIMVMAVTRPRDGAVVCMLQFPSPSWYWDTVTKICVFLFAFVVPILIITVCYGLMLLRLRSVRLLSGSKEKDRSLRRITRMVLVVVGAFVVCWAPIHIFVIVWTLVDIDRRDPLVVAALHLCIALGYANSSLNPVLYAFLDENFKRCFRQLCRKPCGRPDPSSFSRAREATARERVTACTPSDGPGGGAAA
# ASSAY DETAILS: Displacement of [3H]-DPDPE from human DOR expressed in CHO cell membranes measured after 2 hrs by microbeta scintillation counting method
pKi: −log10 of the molar value.
Record Criterion met whenever pKi is at 7 or higher; record Criterion not met when lower.

- COc1cccc(C2(O)CCN(C(=O)Cc3c[nH]c4ccccc34)CC2CN(C)C)c1 (stereo not given): Criterion not met
- CN(C)CC1CN(C(=O)Cc2ccccc2)CCC1(O)c1ccccc1 (stereo not given): Criterion not met
- Cc1cccc(CC(=O)N2CCC(O)(c3cccc(O)c3)C(CN(C)C)C2)c1 (stereo not given): Criterion met
- CN(C)CC1CN(C(=O)Cc2ccccc2Cl)CCC1(O)c1cccc(O)c1 (stereo not given): Criterion met
- COc1cccc(C2(O)CCN(C(=O)Cc3cccc(Br)c3)CC2CN(C)C)c1 (stereo not given): Criterion not met
- CN(C)CC1CN(CCc2cccc(C(F)(F)F)c2)CCC1(O)c1cccc(O)c1 (stereo not given): Criterion met

Now let's try a different one.
Q: Given the entry COc1cccc(C2(O)CCN(C(=O)Cc3cccc(C(F)(F)F)c3)CC2CN(C)C)c1 (stereo not given) , answer whether its pKi meets or surpasses 7.
Ans: Criterion not met

----------
# ASSAYED TARGET: Kappa-type opioid receptor (Homo sapiens)
# ASSAY DETAILS: Inhibition of human KOR expressed in CHO cell membrane assessed as inhibition relative to control
# Format: cell-based
# Set-up: concentration or dose not given beside the values
# CONDITIONS USED: filed as agonist, concentration not given here
Values of inhibition greater than or equal to 30% map to 1; values below map to -1.

- COc1cccc(C2(O)CCN(C(=O)C3(c4ccccc4)CC3)CC2CN(C)C)c1 (configuration not stated): 1

Next item in the queue.
Q: Could you verify whether the entry COc1cccc(C2(O)CCN(C(=O)Cc3ccsc3)CC2CN(C)C)c1 (configuration not stated) shows inhibition of no less than 30%?
Ans: -1

----------
# ASSAYED TARGET: Delta-type opioid receptor (Homo sapiens, UniProt P41143)
# ASSAY DETAILS: Agonist activity at DOR (unknown origin) expressed in CHO cell membranes assessed as stimulation of [35S]GTPgammaS binding measured after 60 mins by liquid scintillation counting analysis relative to control
# CONDITIONS USED: filed as agonist
MEASUREMENT KIND: Emax (%)
Answer in %, number only, no unit symbol.

Consider the worked cases shown below.
* CN(C)CC1CN(CCc2cccc(C(F)(F)F)c2)CCC1(O)c1cccc(O)c1 (stereo not given) | 209
* CN(C)CC1CN(C(=O)CCc2cccc(C(F)(F)F)c2)CCC1(O)c1cccc(O)c1 (stereo not given) | 209
* CN(C)CC1CN(C(=O)Cc2cccc(Cl)c2)CCC1(O)c1cccc(O)c1 (stereo not given) | 232
* CN(C)CC1CN(C(=O)Cc2ccc(Cl)cc2)CCC1(O)c1cccc(O)c1 (stereo not given) | 242

Q: Kindly state the measured Emax obtained for CN(C)CC1CN(C(=O)Cc2ccc(F)cc2)CCC1(O)c1cccc(O)c1 (stereo not given) with Delta-type opioid receptor (Homo sapiens, UniProt P41143).
Ans: 207

----------
Reported pKi values, UniProt P41145.
For clarity, pKi is expressed as the negative log10 of concentration in mol/L.

Q: What measured pKi is associated with CN(C)CC1CN(C(=O)CCc2cccc(C(F)(F)F)c2)CCC1(O)c1cccc(O)c1 (stereo not drawn) on UniProt P41145?
Ans: 6.98

Q: Lab note: need pKi for CN(C)CC1CN(C(=O)CCc2ccccc2C(F)(F)F)CCC1(O)c1cccc(O)c1 (stereo not drawn) on UniProt P41145, anyone have it?
Ans: 6.79

Q: State its pKi on UniProt P41145: CN(C)CC1CN(C(=O)Cc2ccc(OC(F)(F)F)cc2)CCC1(O)c1cccc(O)c1 (stereo not drawn)
Ans: 7.03

----------
pKi for assorted molecules
# ASSAYED TARGET: Delta-type opioid receptor (Homo sapiens, UniProt P41143)
# ASSAY DETAILS: Displacement of [3H]-DPDPE from human DOR expressed in CHO cell membranes measured after 2 hrs by microbeta scintillation counting method
In simple prose, pKi is minus the logarithm base ten of a concentration in moles per litre.

Known results for molecules:
- Cc1ccc(CC(=O)N2CCC(O)(c3cccc(O)c3)C(CN(C)C)C2)cc1 (stereo not drawn): 6.93
- CN(C)CC1CN(C(=O)Cc2ccc(F)cc2)CCC1(O)c1cccc(O)c1 (stereo not drawn): 6.87

Would you kindly look at the next entry?
Q: Need pKi of CN(C)CC1CN(C(=O)Cc2ccc(Cl)cc2)CCC1(O)c1cccc(O)c1 (stereo not drawn) , thanks.
Ans: 6.98

----------
Reported values of inhibition for individual entries
# ASSAYED TARGET: Kappa-type opioid receptor (Homo sapiens, UniProt P41145)
# Sequence (P41145 whole entry): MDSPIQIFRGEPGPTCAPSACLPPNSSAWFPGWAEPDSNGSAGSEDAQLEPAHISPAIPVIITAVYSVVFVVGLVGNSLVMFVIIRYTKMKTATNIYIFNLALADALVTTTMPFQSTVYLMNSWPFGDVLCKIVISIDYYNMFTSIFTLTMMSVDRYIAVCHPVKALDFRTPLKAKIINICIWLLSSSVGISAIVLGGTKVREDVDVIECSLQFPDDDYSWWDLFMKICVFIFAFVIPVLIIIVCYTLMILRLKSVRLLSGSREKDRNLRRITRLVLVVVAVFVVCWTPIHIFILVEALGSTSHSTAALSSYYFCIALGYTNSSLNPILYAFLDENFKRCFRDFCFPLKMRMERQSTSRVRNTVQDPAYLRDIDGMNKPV
# ASSAY DETAILS: Inhibition of human KOR expressed in CHO cell membrane assessed as inhibition relative to control
# Assay type: cell-based
# Design: concentration or dose not given beside the values
# CONDITIONS USED: filed as agonist, concentration not given here
The reply should contain only the number, in %.

Use the examples below as a reference point.
• COc1cccc(C2(O)CCN(C(=O)C3(c4ccccc4)CCCCC3)CC2CN(C)C)c1 (stereo not given) = 30.7
• COc1cccc(C2(O)CCN(C(=O)C3(c4ccccc4)CCCC3)CC2CN(C)C)c1 (stereo not given) = 32.6
• COc1cccc(C2(O)CCN(C(=O)Cc3cccc(OC(F)(F)F)c3)CC2CN(C)C)c1 (stereo not given) = 13.5
• COc1cccc(C2(O)CCN(C(=O)Cc3cccs3)CC2CN(C)C)c1 (stereo not given) = 32.5

Here is another compound to look at.
Q: // query inhibition value for entry COc1cccc(C2(O)CCN(C(=O)Cc3ccc(Cl)cc3)CC2CN(C)C)c1 (stereo not given)
Ans: 39.4
